# ASSAY_INFO: RP, Restek Raptor Biphenyl, 100 × 2.1 mm, 2.7 µm, 50 °C, 0.4 mL/min, estimated dead time 0.55 min; A: water + 0.1% formic acid, pH 3; B: methanol + 0.1% formic acid, pH 3; gradient (min/%B) 0/5 1.12/5 6.41/99.5 10.01/99.5
# EXPERIMENTAL_PARAMETERS: stereoisomer not certain
READOUT: LC retention time (min)

MOLECULE | LC retention time / min
CCCCCCCCCCCCC[n+]1cccc(S(=O)(=O)[O-])c1 [C13-APS] | 5.95
N#Cc1nn(-c2c(Cl)cc(C(F)(F)F)cc2Cl)c(N)c1S(=O)C(F)(F)F (centres undefined) [Fipronil] | 5.6
CCCCCCCCCCCCCC[n+]1cccc(S(=O)(=O)[O-])c1 [C14-APS] | 6.1
CC(C(=O)O)C(O)(CC(=O)O)C(=O)O (racemic) [Trisodium 2-methylcitrate, racemic mixture of diastereomers] | 1.03

1. CCCCCCCCCCCCCCCCC(=O)O [Heptadecanoic acid]
2. O=C(O)CCCC(=O)O [Glutaric acid]
3. O=C(O)CCC(=O)C(=O)O [α-Ketoglutaric acid]
[ask] Arrange these 3 molecules in increasing order of LC retention time. Write the labels, ordered according to the request.
[reply] 3, 2, 1
(3: 0.722 min, 2: 1.37 min, 1: 6.6 min)
